- Tested on: armyworm (Spodoptera frugiperda)
- experiment-description: Spodoptera frugiperda test (SPODFR spray treatment), Example 15
- Format: in vivo
- run-conditions: application rate 100 g/ha, maize leaf discs sprayed, after 7 days
measurement-label: efficacy in % (%)
API: value field is a number in %; no unit string.

These recorded examples may help you get a feel for the data.
{"compound": "N#Cc1ccc(NC(=O)c2ccc(/C=C/C(=O)NC(c3cccc(C(F)(F)F)c3)C(F)(F)F)cc2Br)nc1 (racemic)", "efficacy in % [%]": 100}
{"compound": "CC(C#N)(NC(=O)c1ccc(/C=C/C(=O)NC(c2cccc(C(F)(F)F)c2)C(F)(F)F)cc1C(F)(F)F)C1CC1 (stereo not shown)", "efficacy in % [%]": 100}
{"compound": "COC(=O)N(C)NC(=O)c1ccc(/C=C/C(=O)NC(c2cccc(C(F)(F)F)c2)C(F)(F)F)cc1C(F)(F)F (stereo not shown)", "efficacy in % [%]": 83}
{"compound": "O=C(/C=C/c1ccc(C(=O)NC2CCC2)c(Br)c1)NC(c1cccc(C(F)(F)F)c1)C(F)(F)F (stereo not shown)", "efficacy in % [%]": 83}
{"compound": "CNC(=O)c1ccc(/C=C/C(=O)NC(c2cccc(C(F)(F)F)c2)C(F)(F)F)cc1C(F)(F)F (stereo not shown)", "efficacy in % [%]": 100}
{"compound": "O=C(/C=C/c1ccc(-n2cnc(Cl)n2)c(C(F)(F)F)c1)NC(c1cccc(C(F)(F)F)c1)C(F)(F)F (racemic)", "efficacy in % [%]": 100}

Lookup result for CC(=O)N(Cc1ccccn1)Cc1ccc(/C=C/C(=O)NC(c2cccc(C(F)(F)F)c2)C(F)(F)F)cc1F (stereo not shown) ; measured efficacy in %: 100
